Origin of measurements: PubChem BioAssay (NCATS)

Tested on: HEK293
Method notes: Cytotoxic Profiling of Annotated Libraries Using Quantitative High-Throughput Screening (AID 1296008); note: nearly all actives have a fitted effect of over 60% in size
Condition parameters: Five cell lines viability, CellTiter-Glo ATP luminescence, 48-72 h
Records with an inconclusive call do not appear. Active and inactive are the calls of the source. Calls come from the whole dose curve; as a rule, active = well fitted inhibition curve with a large enough effect; inconclusive = small, poorly fitted or top-dose-only effect; inactive = flat fitted curve, though single readings scatter.
One label from this list, please: active, inactive

Illustrative cases are given below, each with its answer.
CC(=O)C1CCOC1=O (stereo unspecified)	inactive
Nc1ccccc1	inactive
ClCCN1CCCC1	inactive
O=C1OC(c2ccc(O)c(S(=O)(=O)O)c2)(c2ccc(O)c(S(=O)(=O)O)c2)c2c(Br)c(Br)c(Br)c(Br)c21	inactive
COC(=O)C(Cl)C(=O)OC	inactive

Shifting focus to the molecule that follows.
Tell me the assay call for COc1cccc2c1C(=O)c1c(O)c3c(c(O)c1C2=O)C[C@@](O)(C(=O)CO)CC3OC1CC(N2CCOC(OC)C2)C(O)C(C)O1 (stereo partly specified) please.
active

###

System: DIV17
Method notes: qHTS profiling for inhibitors of Plasmodium falciparum proliferation (AID 504749); note: nearly all actives have a fitted effect of over 60% in size
Condition parameters: P. falciparum in erythrocytes, SYBR Green DNA, 72 h; series mostly up to 28.7 µM
Results filed as inconclusive are left out. Active and inactive are the calls of the source. Calls come from the whole dose curve; as a rule, active = well fitted inhibition curve with a large enough effect; inconclusive = small, poorly fitted or top-dose-only effect; inactive = flat fitted curve, though single readings scatter.
Tick one outcome: active, inactive

Answered cases to consult:
O=C(Nc1ccc(Br)cc1)c1cc(Br)cc(Br)c1O	inactive
CN1C(=O)CCS(=O)(=O)C1c1ccc(Cl)cc1 (stereo unspecified)	inactive
CC(C)(C)NCC(O)c1cc(Cl)c(N)c(C(F)(F)F)c1 (stereo unspecified)	active
CCCC(C)(COC(N)=O)COC(N)=O	inactive
O=c1oc2ccccc2c(O)c1Cc1c(O)c2ccccc2oc1=O	inactive

# lookup: test call for CN1C(=O)C(O)N=C(c2ccccc2)c2cc(Cl)ccc21 (stereo unspecified)
inactive

I'd appreciate the recorded outcome for CCOC(=O)CC(SP(=S)(OC)OC)C(=O)OCC (stereo unspecified) from this test.
inactive

###

Test system: CP237
Method notes: qHTS profiling for inhibitors of Plasmodium falciparum proliferation (AID 504749); note: nearly all actives have a fitted effect of over 60% in size
Condition parameters: P. falciparum in erythrocytes, SYBR Green DNA, 72 h; series mostly up to 28.7 µM
Results filed as inconclusive are left out. Calls of active or inactive are those of the source. The call rests on the fitted dose curve; in most records, active means well fitted inhibition curve with a large enough effect; inconclusive means small, poorly fitted or top-dose-only effect; inactive means flat fitted curve, though single readings scatter.
Classes to choose from: Yes for active, No for inactive

Solved entries:
COC(=O)C(c1ccccc1)C1CCCCN1 (configuration not stated)	Yes
O=c1oc2ccccc2c(O)c1Cc1c(O)c2ccccc2oc1=O	No
O=C1c2ccccc2C(=O)C1C(=O)C(c1ccccc1)c1ccccc1	No

Short answer needed: outcome of this test for O=C(O)CCCc1ccc(N(CCCl)CCCl)cc1 ?
No

Call for entry Oc1ccc(Cl)cc1 :
No

How was O=c1[nH]oc2c1CCNC2 classified in this test?
No

Please state the recorded outcome for this compound: Nc1nc(N)nc(NC2CC2)n1
No

###

System: CRL-7250
Method notes: qHTS assay to identify novel small-molecules to repurpose for Merkel cell carcinoma treatment (AID 1296009); note: nearly all actives have a fitted effect of over 60% in size
Condition parameters: MCC and control cell lines, CellTiter-Glo viability, 72 h; at 44.8 µM (top of the series) unless noted
Inconclusive results are not listed. The source made the active and inactive calls. Calls follow the shape of the dose curve; as a rule, active = well fitted inhibition curve with a large enough effect; inconclusive = small, poorly fitted or top-dose-only effect; inactive = flat fitted curve, though single readings scatter.
Measurement label: outcome

CC(C(=O)O)c1ccc2c(c1)[nH]c1ccc(Cl)cc12 (stereo not drawn)	inactive
COc1cc2c(Nc3ccc(Br)cc3F)ncnc2cc1OCC1CCN(C)CC1	inactive
NCCCC[C@H](N[C@@H](CCc1ccccc1)C(=O)O)C(=O)N1CCC[C@H]1C(=O)O	inactive

###

Method notes: Cellular Toxicity (caspase-3) HepG2 (AID 654);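 note: cells exposed to compound for 16 hours before reading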
Condition parameters: HepG2 caspase-3 activation, luminescence, 0% = DMSO only, 100% = tamoxifen; series mostly up to 92.2 µM
Calls of active or inactive are those of the source. Calls follow the shape of the dose curve; as a rule, active = well fitted activation curve with a large enough effect; inconclusive = small, poorly fitted or top-dose-only effect; inactive = flat fitted curve, though single readings scatter.
Measurement label: outcome

Example molecules with recorded outcome:
C[C@]1(O)CC[C@H]2[C@@H]3CCC4=CC(=O)CC[C@]4(C)[C@@]3(F)[C@@H](O)C[C@@]21C	inactive
CCOC(=O)CC(SP(=S)(OC)OC)C(=O)OCC (stereo not drawn)	inactive
C[C@]12CCC(=O)C=C1CC[C@@H]1[C@@H]2CC[C@@]2(C)[C@H]1CC[C@]2(C)O	inactive
CCC(C)(C)c1ccc(O)cc1	inactive
C[C@]12CCC(=O)C=C1CC[C@@H]1[C@@H]2CC[C@]2(C)C(=O)CC[C@@H]12	inactive

Dear colleague, I am looking for the recorded outcome of the following molecule: CC(C)c1cccc(C(C)C)c1O
inactive

So what's the measured outcome for this one? CN1C[C@H](C(=O)N[C@]2(C)O[C@@]3(O)[C@@H]4CCCN4C(=O)[C@H](Cc4ccccc4)N3C2=O)C=C2c3cccc4[nH]cc(c34)C[C@H]21
inactive

Entry COP(=S)(OC)Oc1ccc(SC)c(C)c1 : reported outcome = ?
inactive

###

Target or test system: Hexokinase-4 (Homo sapiens) + Glucokinase regulatory protein (Homo sapiens) (UniProt P35557+Q14397)
Sequence (P35557 whole entry, looked up): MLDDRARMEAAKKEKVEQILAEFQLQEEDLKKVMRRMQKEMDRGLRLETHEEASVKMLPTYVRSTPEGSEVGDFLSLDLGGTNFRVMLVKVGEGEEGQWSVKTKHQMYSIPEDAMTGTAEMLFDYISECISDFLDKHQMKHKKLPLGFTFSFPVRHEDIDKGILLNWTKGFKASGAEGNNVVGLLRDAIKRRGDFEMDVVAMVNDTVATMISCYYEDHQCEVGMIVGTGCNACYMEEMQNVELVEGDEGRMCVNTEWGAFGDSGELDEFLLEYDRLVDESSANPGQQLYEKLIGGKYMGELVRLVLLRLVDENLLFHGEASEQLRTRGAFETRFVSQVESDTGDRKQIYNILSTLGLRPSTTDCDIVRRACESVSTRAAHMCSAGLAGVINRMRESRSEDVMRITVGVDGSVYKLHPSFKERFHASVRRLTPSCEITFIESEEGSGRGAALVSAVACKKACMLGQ
Sequence (Q14397 whole entry, looked up): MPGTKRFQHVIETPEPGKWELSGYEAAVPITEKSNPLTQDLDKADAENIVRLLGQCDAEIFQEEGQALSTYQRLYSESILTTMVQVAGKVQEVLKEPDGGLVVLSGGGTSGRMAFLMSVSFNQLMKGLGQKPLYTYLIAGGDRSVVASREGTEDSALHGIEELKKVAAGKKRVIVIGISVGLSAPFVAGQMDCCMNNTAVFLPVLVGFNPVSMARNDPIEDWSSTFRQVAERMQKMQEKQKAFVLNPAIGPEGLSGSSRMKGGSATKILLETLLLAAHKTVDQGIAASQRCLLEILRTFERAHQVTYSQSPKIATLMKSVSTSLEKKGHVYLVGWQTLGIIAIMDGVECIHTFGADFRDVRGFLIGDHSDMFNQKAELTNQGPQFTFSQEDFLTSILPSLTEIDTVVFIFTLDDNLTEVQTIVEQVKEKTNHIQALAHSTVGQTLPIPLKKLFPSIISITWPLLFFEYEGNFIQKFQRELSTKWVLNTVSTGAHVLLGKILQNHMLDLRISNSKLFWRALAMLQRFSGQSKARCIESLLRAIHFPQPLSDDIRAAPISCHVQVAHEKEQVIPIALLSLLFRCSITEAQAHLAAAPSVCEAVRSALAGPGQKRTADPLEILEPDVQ
Method notes: qHTS assay for inhibitors of recombinant human GCK-GKRP interaction: ADP-Glo assay (AID 743206)
Condition parameters: ADP-Glo luminescence, 60 min, 0% = vehicle-only wells with enzyme present; series mostly up to 76.9 µM
Activity calls are given as the source filed them. The call rests on the fitted dose curve; in most records, active means well fitted curve in the direction sought with a large enough effect; inconclusive means small, poorly fitted or top-dose-only effect, or another doubt; inactive means no such curve, though single readings can be large or run the other way.
Measurement label: outcome

Solved entries:
O=c1[nH]oc2c1CCNC2	inactive
CCC1(c2ccc(N)cc2)CCC(=O)NC1=O (centres undefined)	inactive
O=C(CCCN1CCC2(CC1)C(=O)NCN2c1ccccc1)c1ccc(F)cc1	inactive
CC(C)c1cccc(C(C)C)c1O	inactive
CC(NC(C)(C)C)C(=O)c1cccc(Cl)c1 (centres undefined)	inactive
CC(C)(C)NCC(O)c1ccccc1Cl (centres undefined)	inactive
C=C(C)[C@H]1CN[C@H](C(=O)O)[C@H]1CC(=O)O	inactive
NCCc1ccc(O)cc1	inactive

Now for the compound whose outcome we want.
Recorded outcome of CN1C(=O)CCS(=O)(=O)C1c1ccc(Cl)cc1 (centres undefined) , please.
inactive

###

Method notes: qHTS of pediatric cancer cell lines to identify multiple opportunities for drug repurposing: Primary screen for Saos-2 cells (AID 1347097); note: nearly all actives have a fitted effect of over 40% in size
Condition parameters: Saos-2 viability, CellTiter-Glo ATP luminescence, 48 h; series mostly up to 46 µM
Inconclusive results are not listed. Activity calls are given as the source filed them. The call rests on the fitted dose curve; in most records, active means well fitted cell-killing curve with a large enough effect; inconclusive means small, poorly fitted or top-dose-only effect; inactive means no such curve, though single readings can be large or run the other way.
Measurement label: outcome

Before answering, review these 5 worked examples.
O=C(N/N=C/c1ccc([N+](=O)[O-])o1)c1cc([N+](=O)[O-])cc([N+](=O)[O-])c1O	inactive
ClCCN1CCCC1	inactive
CCN(CC)CCc1c[nH]c2ccccc12	inactive
CC(C)c1cccc(C(C)C)c1O	inactive
CNC(C)(C)Cc1ccccc1	inactive

Look at this molecule and give its reported outcome. COc1cccc([C@@]2(O)CCCC[C@@H]2CN(C)C)c1
inactive

Endpoint output: outcome of CC(C)(C)NCC(O)c1ccccc1Cl (stereo not drawn) . Value?
inactive

Fill blank: measured outcome of the molecule NNc1ccccc1 is ____.
inactive

###

Method notes: qHTS for Inhibitors of ATXN expression: Validation of Cytotoxic Assay (AID 588349);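 note: cells exposed to compound for 72 hr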
Condition parameters: cytotoxicity counter-screen for ATXN expression inhibitors, cell viability; series mostly up to 57.1 µM
Records with an inconclusive call do not appear. Activity calls are given as the source filed them. Calls come from the whole dose curve; as a rule, active = well fitted cell-killing curve with a large enough effect; inconclusive = small, poorly fitted or top-dose-only effect, or effect the other way; inactive = flat fitted curve, though single readings scatter.
Measurement label: outcome

// below: answered molecules
NCCc1ccc(O)cc1	inactive
Cc1ncsc1CCCl	inactive
O=c1[nH]oc2c1CCNC2	inactive
CN1C(=O)CCS(=O)(=O)C1c1ccc(Cl)cc1 (stereo not given)	inactive
CC(C)N(CCC(C(N)=O)(c1ccccc1)c1ccccn1)C(C)C (stereo not given)	inactive
C=C(C)[C@H]1CN[C@H](C(=O)O)[C@H]1CC(=O)O	inactive
CC(C)(C)NCC(O)c1ccccc1Cl (stereo not given)	inactive
CC(NC(C)(C)C)C(=O)c1cccc(Cl)c1 (stereo not given)	inactive
CCC1(c2ccc(N)cc2)CCC(=O)NC1=O (stereo not given)	inactive

Quick one: outcome of CCCCC/C=C\C/C=C\C/C=C\C/C=C\CCCC(=O)NCC(=O)O ?
inactive

###

Method notes: Cell Viability - LYMP2-025 (AID 976);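 note: cells exposed to compound for 24 h at 37 °C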
Condition parameters: LYMP2-025 lymphoblastoid cell viability; series mostly up to 92.2 µM
Inconclusive results are not listed. The source made the active and inactive calls. The call rests on the fitted dose curve; in most records, active means well fitted cell-killing curve with a large enough effect; inconclusive means small, poorly fitted or top-dose-only effect; inactive means flat fitted curve, though single readings scatter.
Measurement label: outcome

Oc1ccc(Cl)cc1	inactive
O=C(O)CCCc1ccc(N(CCCl)CCCl)cc1	inactive
CN1C[C@H](C(=O)N[C@]2(C)O[C@@]3(O)[C@@H]4CCCN4C(=O)[C@H](Cc4ccccc4)N3C2=O)C=C2c3cccc4[nH]cc(c34)C[C@H]21	inactive

###

Method notes: qHTS of pediatric cancer cell lines to identify multiple opportunities for drug repurposing: Primary screen for NB-EBc1 cells (AID 1347095)
Condition parameters: NB-EBc1 neuroblastoma viability, CellTiter-Glo luminescence, 48 h; series mostly up to 46 µM
Results filed as inconclusive are left out. The source made the active and inactive calls. The call rests on the fitted dose curve; in most records, active means well fitted cell-killing curve with a large enough effect; inconclusive means small, poorly fitted or top-dose-only effect; inactive means no such curve, though single readings can be large or run the other way.
Parameter call: string, one of active, inactive

Observe how each entry below is paired with its result.
CC(Cc1ccccc1)NCCn1cnc2c1c(=O)n(C)c(=O)n2C (configuration not stated)	inactive
Clc1ccccc1N1CCNCC1	inactive
CCN(CC)CCc1c[nH]c2ccccc12	inactive
CCCN(CCC)C(=O)Cc1c(-c2ccc(Cl)cc2)nc2ccc(Cl)cn12	inactive

Can you look up the reported call for CCC1(c2ccccc2)C(=O)N(COC)C(=O)N(COC)C1=O for me?
inactive

Status in this test for C[C@@H]1CC2=CC(=O)CC[C@@H]2[C@H]2CC[C@@]3(C)[C@@H](CC[C@]3(C)O)[C@@H]21 ?
inactive

Each compound tested received a call. Report the one for O=C1c2ccccc2C(=O)c2ccccc21 .
inactive

Test call for this compound, please: CC(=O)OCC1=C(C(=O)O)N2C(=O)[C@@H](N)[C@H]2SC1
inactive

Recorded test call requested for COc1c2c(cc3c1OCO3)CCN(C)C2
inactive

Assay result, entry Oc1ccc(Cl)cc1 — outcome?
inactive
